TEST PROTOCOL: Preliminary pharmacokinetics in trial 1403-0001 (Arm A D1 q3w, Arm B D1 D8 q4w)
Type: in vivo, human
MEASUREMENT PARAMETERS: human, plasma, oral, 60 mg, Arm A D1 q3w, 60 mg, N=6; read-out: Vz/F, gMean (gCV [%])
REPORTED METRIC: Vd/F (L)
Give bare numbers, in L.

stdin: May I ask what Vd/F has been recorded for `Cc1c(C(=O)O)ccc2c3n(nc12)[C@@H]1[C@H](C3)N(CC2CC2)[C@@]2(C(=O)Nc3cc(Cl)ccc32)[C@H]1c1cccc(Cl)c1F` ?
stdout: 31.4

====

TEST PROTOCOL: Preliminary pharmacokinetics in trial 1403-0001 (Arm A D1 q3w, Arm B D1 D8 q4w)
Assay type: in vivo, human
MEASUREMENT PARAMETERS: human, plasma, oral, 45 mg, Arm A D1 q3w, 45 mg, N=6; read-out: tmax (median)
REPORTED METRIC: Tmax
Give the value; after it, write the unit.

stdin: May I ask what Tmax has been recorded for Cc1c(C(=O)O)ccc2c3n(nc12)[C@@H]1[C@H](C3)N(CC2CC2)[C@@]2(C(=O)Nc3cc(Cl)ccc32)[C@H]1c1cccc(Cl)c1F [MDM2-antagonist of formula I] ?
stdout: 4 h

====

TEST PROTOCOL: Preliminary pharmacokinetics in trial 1403-0001 (Arm A D1 q3w, Arm B D1 D8 q4w)
Type: in vivo, human
MEASUREMENT PARAMETERS: human, plasma, oral, 10 mg, Day 1, D1 D8 q4w (Arm B), gMean, N=3; read-out: t1/2 (converted)
REPORTED METRIC: half-life (days)
Answers are plain numbers, in days.

stdin: May I ask what half-life has been recorded for `Cc1c(C(=O)O)ccc2c3n(nc12)[C@@H]1[C@H](C3)N(CC2CC2)[C@@]2(C(=O)Nc3cc(Cl)ccc32)[C@H]1c1cccc(Cl)c1F` ?
stdout: 2.18

====

TEST PROTOCOL: Preliminary pharmacokinetics in trial 1403-0001 (Arm A D1 q3w, Arm B D1 D8 q4w)
Type: in vivo, human
MEASUREMENT PARAMETERS: human, plasma, oral, 80 mg, Arm A D1 q3w, 80 mg, N=2; read-out: t1/2 (gMean) (converted)
REPORTED METRIC: half-life (h)
Give bare numbers, in h.

stdin: May I ask what half-life has been recorded for Cc1c(C(=O)O)ccc2c3n(nc12)[C@@H]1[C@H](C3)N(CC2CC2)[C@@]2(C(=O)Nc3cc(Cl)ccc32)[C@H]1c1cccc(Cl)c1F [MDM2-antagonist of formula I] ?
stdout: 27.9

====

TEST PROTOCOL: Preliminary pharmacokinetics in trial 1403-0001 (Arm A D1 q3w, Arm B D1 D8 q4w)
Type: in vivo, human
MEASUREMENT PARAMETERS: human, plasma, oral, 80 mg, Arm A D1 q3w, 80 mg, N=2; read-out: Cmax (gMean)
REPORTED METRIC: Cmax (µM)
One number for each entry, in µM.

stdin: May I ask what Cmax has been recorded for Cc1c(C(=O)O)ccc2c3n(nc12)[C@@H]1[C@H](C3)N(CC2CC2)[C@@]2(C(=O)Nc3cc(Cl)ccc32)[C@H]1c1cccc(Cl)c1F [MDM2-antagonist of formula I] ?
stdout: 3.93
